target: La protein:fD1-RNA (Homo sapiens); construct: His; experiment: La:RNA fluorescence polarization assay (La-FP); conditions: 1.35 μM La, 0.8 μM fD1-RNA; compound at 25, 50, 100, 1000 μM; read-out: IC50, La:fD1-RNA complex formation (La-FP)
Sequence (P05455 whole entry): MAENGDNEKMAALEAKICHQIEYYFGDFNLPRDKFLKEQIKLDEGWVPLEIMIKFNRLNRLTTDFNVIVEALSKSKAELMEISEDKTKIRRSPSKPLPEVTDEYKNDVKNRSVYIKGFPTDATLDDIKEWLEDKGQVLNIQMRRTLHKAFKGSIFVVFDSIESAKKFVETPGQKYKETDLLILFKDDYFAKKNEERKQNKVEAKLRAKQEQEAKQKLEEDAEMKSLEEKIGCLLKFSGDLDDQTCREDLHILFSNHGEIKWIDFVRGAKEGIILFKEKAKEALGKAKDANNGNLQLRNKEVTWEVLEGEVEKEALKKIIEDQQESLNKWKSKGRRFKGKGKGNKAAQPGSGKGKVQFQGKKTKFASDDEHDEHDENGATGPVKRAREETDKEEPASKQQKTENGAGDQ
Listing: IC50 of selected compounds
Could you give me the number in µM? Just the number is fine.

# COMPOUND, RECORDED RESULT
rows = [
    ("O=C(O)c1ccccc1C(=O)c1ccc(O)cc1O [C2, 2-(2,4-dihydroxybenzoyl)benzoic acid]", 7.5),
]

Moving on to the next compound.
input: Please give the measured IC50 for this compound: CCOC(=O)c1ccc2c(c1)C1C=CCC1C(C(=O)O)N2 (centres unmarked) [C6]
output: 2.5
